meta.source: ChEMBL document CHEMBL5120778

Target: Potassium voltage-gated channel subfamily A member 3 (Homo sapiens, UniProt P22001)
Sequence (P22001 whole entry): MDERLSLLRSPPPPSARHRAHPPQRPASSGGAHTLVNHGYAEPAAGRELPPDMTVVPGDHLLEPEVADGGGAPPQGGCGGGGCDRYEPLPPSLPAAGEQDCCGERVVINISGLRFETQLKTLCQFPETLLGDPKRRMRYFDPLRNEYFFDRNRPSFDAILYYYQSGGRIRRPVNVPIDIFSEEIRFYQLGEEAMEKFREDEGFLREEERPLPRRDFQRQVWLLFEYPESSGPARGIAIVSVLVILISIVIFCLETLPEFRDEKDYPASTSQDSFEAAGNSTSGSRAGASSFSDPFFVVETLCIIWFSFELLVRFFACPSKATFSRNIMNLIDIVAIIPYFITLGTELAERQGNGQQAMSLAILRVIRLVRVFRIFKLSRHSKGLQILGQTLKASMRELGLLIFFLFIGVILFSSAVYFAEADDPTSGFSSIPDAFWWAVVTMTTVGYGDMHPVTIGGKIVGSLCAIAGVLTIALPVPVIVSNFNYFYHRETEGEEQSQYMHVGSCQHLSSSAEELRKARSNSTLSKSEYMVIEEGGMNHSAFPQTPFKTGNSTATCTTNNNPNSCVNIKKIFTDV
Experiment: Inhibition of human Kv1.3 expressed in HEK293 cells assessed as inhibition of tetracyclin induced current at 30 uM at holding potential of -80 mV by patch clamp method relative to control
Assay type: cell-based
METRIC: inhibition (%)

CC(=O)O[C@@H]1C[C@@H](OC(C)=O)C(C)(C)/C=C/[C@H](C)[C@H](OC(C)=O)[C@@]2(O)C[C@H](C)[C@H](OC(=O)c3cccc(O)c3)[C@@H]2/C=C/1C 74.4
CC(=O)O[C@@H]1CC(=O)/C(C)=C/[C@H]2[C@@H](OC(=O)c3ccccc3)[C@@H](C)C[C@]2(O)[C@@H](OC(C)=O)[C@@H](C)/C=C/C1(C)C 89.4
CC(=O)O[C@@H]1C[C@@H](OC(C)=O)C(C)(C)/C=C/[C@H](C)[C@H](OC(C)=O)[C@@]2(O)C[C@H](C)[C@H](OC(=O)c3ccccc3)[C@@H]2/C=C/1C 88.7

----------
Target: Potassium voltage-gated channel subfamily A member 3 (Homo sapiens)
Assay: Inhibition of human Kv1.3 expressed in HEK293 cells assessed as inhibition of tetracyclin induced current at holding potential of -80 mV by patch clamp method
pIC50: −log10 of the molar value.
Recorded pIC50 by entry
METRIC: pIC50

CC(=O)O[C@@H]1[C@H](C)[C@@H](C=C(C)C)C(=O)C[C@@H](OC(=O)c2cccnc2)/C(C)=C/[C@H]2[C@@H](OC(=O)c3ccccc3)[C@H](C)C[C@]12OC(C)=O 5.19
CC(=O)O[C@@H]1C[C@@H](OC(C)=O)C(C)(C)[C@@H](O)/C=C(\C)C(=O)[C@@]2(OC(C)=O)C[C@H](C)[C@H](OC(=O)c3ccccc3)[C@@H]2/C=C/1C 6.05
Fc1ccc([C@@H]2CCNC[C@H]2COc2ccc3c(c2)OCO3)cc1 4.50
CC(=O)O[C@@H]1C[C@@H](OC(C)=O)C(C)(C)[C@H](O)/C=C(\C)[C@H](OC(C)=O)[C@@]2(OC(C)=O)C[C@H](C)[C@H](OC(=O)c3ccccc3)[C@@H]2/C=C/1C 6.05

----------
Recorded inhibition by entry
Target: Potassium voltage-gated channel subfamily A member 3 (Homo sapiens, UniProt P22001)
Experiment: Inhibition of human Kv1.3 expressed in HEK293 cells assessed as inhibition of tetracyclin induced current at 1 uM at holding potential of -80 mV by patch clamp method relative to control
Type: cell-based
METRIC: inhibition (%)

CC(=O)O[C@@H]1C[C@@H](OC(C)=O)C(C)(C)[C@@H](O)[C@H](O)[C@H](C)[C@H](OC(C)=O)[C@@]2(O)C[C@H](C)[C@H](OC(=O)c3ccccc3)[C@@H]2/C=C/1C 24.3
CC(=O)O[C@@H]1CC(=O)/C(C)=C/[C@H]2[C@@H](OC(=O)c3ccccc3)[C@@H](C)C[C@]2(O)[C@@H](OC(C)=O)[C@@H](C)/C=C/C1(C)C 4.72
CC(=O)O[C@@H]1C[C@@H](OC(C)=O)C(C)(C)/C=C/[C@H](C)[C@H](OC(C)=O)[C@@]2(O)C[C@H](C)[C@H](OC(=O)c3cccc(O)c3)[C@@H]2/C=C/1C 6.16
CC(=O)O[C@]12C[C@H](C)[C@H](OC(=O)c3ccccc3)[C@@H]1/C=C(\C)[C@H](O)CC(=O)C(C)(C)C/C=C(\C)C2=O 4.96
CC(=O)O[C@@H]1CC(=O)C(C)(C)/C=C/[C@@H](C)[C@@H](O)[C@@]2(OC(C)=O)C[C@H](C)[C@H](OC(=O)c3ccccc3)[C@@H]2/C=C/1C 24.6
CC(=O)O[C@@H]1[C@H](C)/C=C/C(C)(C)C(=O)C[C@@H](OC(=O)c2cccnc2)/C(C)=C/[C@H]2[C@@H](OC(=O)c3ccccc3)[C@H](C)C[C@]12OC(C)=O 10.5
CC(=O)O[C@@H]1C[C@@H](O)/C(C)=C/[C@H]2[C@@H](OC(=O)c3ccccc3)[C@@H](C)C[C@]2(OC(C)=O)C(=O)/C(C)=C/[C@H](O)C1(C)C 7.36
CC(=O)O[C@@H]1C[C@@H](OC(C)=O)C(C)(C)/C=C/[C@H](C)[C@@H](O)[C@@]2(OC(C)=O)C[C@@H](C)[C@H](OC(=O)c3ccccc3)[C@@H]2/C=C/1C 21.1
CC(=O)O[C@@H]1[C@@H](C)/C=C/C(C)(C)C(=O)C[C@@H](OC(C)=O)/C(CO)=C/[C@H]2[C@@H](OC(=O)c3ccccc3)[C@H](C)C[C@]12OC(C)=O 5.94
CC(=O)O[C@@H]1C[C@@H](OC(C)=O)C(C)(C)[C@@H](O)/C=C(\C)C(=O)[C@@]2(OC(C)=O)C[C@H](C)[C@H](OC(=O)c3ccccc3)[C@@H]2/C=C/1C 57
CC(=O)O[C@]12C[C@@H](C)[C@H](OC(=O)c3ccccc3)[C@@H]1/C=C(\C)[C@H](O)CC(=O)C(C)(C)[C@@H](O)/C=C(\C)C2=O 5.67
CC(=O)O[C@@H]1C[C@@H](OC(C)=O)C(C)(C)[C@H](O)/C=C(\C)[C@H](OC(C)=O)[C@@]2(OC(C)=O)C[C@H](C)[C@H](OC(=O)c3ccccc3)[C@@H]2/C=C/1C 50.4
CC(=O)O[C@@H]1[C@@H](C)/C=C/C(C)(C)[C@H](OC(C)=O)C[C@@H](OC(C)=O)/C(C)=C/[C@H]2[C@@H](OC(=O)c3ccccc3)[C@@H](C)C[C@]12OC(C)=O 8.34
CC(=O)O[C@]12C[C@@H](C)[C@H](OC(=O)c3ccccc3)[C@@H]1/C=C(\C)[C@H](O)CC(=O)C(C)(C)/C=C/[C@@H](C)[C@H]2O 13.4
CC(=O)O[C@@H]1C[C@@H](OC(C)=O)C(C)(C)[C@H](O)[C@H]2O[C@@]3(C[C@H](C)[C@H](OC(=O)c4ccccc4)[C@@H]3/C=C/1C)[C@@H](OC(C)=O)[C@H]2C 21
CC(=O)O[C@@H]1[C@H](C)[C@@H](C=C(C)C)C(=O)C[C@@H](OC(=O)c2cccnc2)/C(C)=C/[C@H]2[C@@H](OC(=O)c3ccccc3)[C@H](C)C[C@]12OC(C)=O 30.9
CC(=O)O[C@@H]1[C@H](C)/C=C/C(C)(C)C(=O)C[C@@H](O)/C(C)=C/[C@H]2[C@@H](OC(=O)c3ccccc3)[C@H](C)C[C@]12OC(C)=O 2.38
CC(=O)O[C@@H]1C[C@@H](O)/C(C)=C/[C@H]2[C@@H](OC(=O)c3ccccc3)[C@H](C)C[C@]2(OC(C)=O)C(=O)/C(C)=C/[C@H](O)C1(C)C 6.06
CC(=O)O[C@@H]1[C@H](C)/C=C/C(C)(C)C(=O)C[C@@H](OC(C)=O)/C(CO)=C/[C@H]2[C@@H](OC(=O)c3ccccc3)[C@H](C)C[C@]12OC(C)=O 5.38
CC(=O)O[C@@H]1C[C@@H](OC(C)=O)C(C)(C)/C=C/[C@H](C)[C@H](OC(C)=O)[C@@]2(O)C[C@H](C)[C@H](OC(=O)c3ccccc3)[C@@H]2/C=C/1C 8.87
